biological target: human mGlu7 (Homo sapiens); experiment: mGlu7 assay on HEK-expressing human mGlu7: fluorescent cell-based Ca2+ mobilization (FLIPR384), inhibition of EC80 L-AP4 response; conditions: HEK-293 cells expressing hmGlu7, EC80 L-AP4 stimulation; mean of at least three independent experiments in duplicate; read-out: Ca^2+ Flux (mean IC50)
Sequence (Q14831 35-922 isoform Q14831-2 limits assumed): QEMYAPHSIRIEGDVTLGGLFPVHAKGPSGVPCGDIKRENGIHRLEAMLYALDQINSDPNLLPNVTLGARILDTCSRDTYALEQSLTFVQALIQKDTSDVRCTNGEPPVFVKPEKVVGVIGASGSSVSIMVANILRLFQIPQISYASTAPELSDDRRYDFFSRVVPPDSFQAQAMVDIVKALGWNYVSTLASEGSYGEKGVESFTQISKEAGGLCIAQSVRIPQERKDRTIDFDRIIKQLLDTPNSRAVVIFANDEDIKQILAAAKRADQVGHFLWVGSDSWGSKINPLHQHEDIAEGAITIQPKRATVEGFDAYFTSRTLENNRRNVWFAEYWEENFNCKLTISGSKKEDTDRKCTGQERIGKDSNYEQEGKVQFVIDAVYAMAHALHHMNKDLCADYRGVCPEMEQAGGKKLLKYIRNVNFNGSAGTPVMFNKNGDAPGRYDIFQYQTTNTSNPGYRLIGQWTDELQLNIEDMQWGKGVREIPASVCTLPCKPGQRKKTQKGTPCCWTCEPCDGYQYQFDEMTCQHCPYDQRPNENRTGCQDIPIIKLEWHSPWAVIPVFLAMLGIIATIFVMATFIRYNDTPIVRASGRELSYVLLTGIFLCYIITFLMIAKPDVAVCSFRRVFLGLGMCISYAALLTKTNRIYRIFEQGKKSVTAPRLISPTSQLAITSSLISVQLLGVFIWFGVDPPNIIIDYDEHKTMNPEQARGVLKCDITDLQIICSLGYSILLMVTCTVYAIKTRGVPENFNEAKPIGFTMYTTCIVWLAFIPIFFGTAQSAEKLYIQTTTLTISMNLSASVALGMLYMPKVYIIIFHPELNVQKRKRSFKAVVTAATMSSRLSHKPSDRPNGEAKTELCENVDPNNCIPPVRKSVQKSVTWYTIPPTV
pIC50: −log10 of the molar value.
Parameter: pIC50. Scope: all listed entries.

- molecule: "CCn1ncc2cc(-c3cccc(N4CCCC4)c3)ccc2c1=O [1-13]"
  pIC50: "5.00 to 6.00"
- molecule: "COc1cccc(-c2ccc3c(=O)n(-c4ncc(N5CCC(N(C)C)C5)cn4)ncc3c2)c1C (stereo not shown) [1-101]"
  pIC50: "6.00 to 7.00"
- molecule: "COc1cccc(-c2ccc3c(=O)n(-c4ncc(NCC(C)(C)N(C)C)cn4)ncc3c2)c1C [1-96]"
  pIC50: "6.00 to 7.00"
- molecule: "COc1cccc(-c2ccc3c(=O)n(-c4ncccc4F)ncc3c2)c1C [1-58]"
  pIC50: "> 7.00"
- molecule: "O=c1c2ccc(-c3cccc(N4CCC4)c3)cc2cnn1-c1ccccn1 [1-45]"
  pIC50: "> 7.00"
- molecule: "COc1cccc(-c2ccc3c(=O)n(-c4ccccn4)ncc3c2)c1Cl [1-33]"
  pIC50: "> 7.00"
- molecule: "COc1cccc(-c2ccc3c(=O)n(-c4ncc(N5CCCCC5)cn4)ncc3c2)c1C [1-71]"
  pIC50: "6.00 to 7.00"
- molecule: "COc1cccc(-c2ccc3c(=O)n(-c4ncc(NC5CCN(C)C5)cn4)ncc3c2)c1C (stereo not shown) [1-107]"
  pIC50: "> 7.00"
- molecule: "COc1cccc(-c2ccc3c(=O)n(-c4ncc(NCC(C)(C)OC)cn4)ncc3c2)c1C [1-110]"
  pIC50: "6.00 to 7.00"
- molecule: "Cc1ccc(-c2ccc3c(=O)n(-c4ncc(N5CCOCC5)cn4)ncc3c2)c(C)c1 [1-81]"
  pIC50: "6.00 to 7.00"
- molecule: "COc1cccc(-c2ccc3c(=O)n(-c4ccc(C(=O)NC5CCC(O)C5)cn4)ncc3c2)c1C (stereo not shown) [1-94]"
  pIC50: "> 7.00"
- molecule: "COc1cccc(-c2ccc3c(=O)n(-c4ncc(NCCN5CCCC5)cn4)ncc3c2)c1C [1-95]"
  pIC50: "6.00 to 7.00"
- molecule: "O=c1c2ccc(-c3cccc(OC4CC4)c3Cl)cc2cnn1-c1ccccn1 [1-34]"
  pIC50: "> 7.00"
- molecule: "O=c1c2ccc(-c3cc(F)cc(N4CCC4)c3)cc2cnn1-c1ccccn1 [1-49]"
  pIC50: "6.00 to 7.00"
- molecule: "Cc1ccc(-c2ccc3c(=O)n(-c4ccccc4Cl)ncc3c2)c(C)c1 [1-5]"
  pIC50: "6.00 to 7.00"
- molecule: "COc1cccc(-c2ccc3c(=O)n(-c4ccc(C(=O)N5CCC(O)C5)cn4)ncc3c2)c1C (stereo not shown) [1-93]"
  pIC50: "> 7.00"
- molecule: "CCOc1cccc(-c2ccc3c(=O)n(CC)ncc3c2)c1 [1-7]"
  pIC50: "6.00 to 7.00"
- molecule: "COc1cccc(-c2ccc3c(=O)n(-c4ncc(NC(C)(C)CN(C)C)cn4)ncc3c2)c1C [1-104]"
  pIC50: "6.00 to 7.00"
- molecule: "CCn1ncc2cc(-c3cccc(OC)c3)ccc2c1=O [1-3]"
  pIC50: "6.00 to 7.00"
